The reported measurements were obtained from ChEMBL document CHEMBL1800020.

# PROTOCOL_SUMMARY: Antiproliferative activity against human CCD-1095SK cells after 96 hrs by crystal violet staining method
# Type: cell-based
# ASSAY_CONTEXT: CCD-1095SK cells, read-out: ED50
PROPERTY_LABEL: log10 of GI50 at 96 h (log10 of the value in µM)
// stored as log10 of GI50 at 96 h expressed in µM

O[C@H]1[C@H](Oc2ccc3ccccc3c2)OC[C@@H](O)[C@@H]1F | 1.86
CO[C@H]1[C@H](Oc2ccc3ccccc3c2)OC[C@@H](O)[C@@H]1O | 1.74
CO[C@@H]1CO[C@@H](Oc2ccc3ccccc3c2)[C@H](O)[C@H]1O | 1.97

Incoming: Provide log10 of GI50 at 96 h value for the following compound: O[C@@H]1CO[C@@H](Oc2ccc3ccccc3c2)[C@H](O)C1
Outgoing: 1.90

Incoming: Query log10 of GI50 at 96 h for O[C@@H]1[C@@H](O)[C@H](Oc2ccc3ccccc3c2)OC[C@@H]1O
Outgoing: 1.68

Incoming: Look up log10 of GI50 at 96 h of O[C@@H]1CO[C@@H](Oc2ccc3ccccc3c2)C[C@H]1O and report it.
Outgoing: 1.28

Incoming: Tell me measured log10 of GI50 at 96 h for O[C@@H]1[C@@H](F)[C@H](Oc2ccc3ccccc3c2)OC[C@H]1O please.
Outgoing: 1.08

Incoming: Kindly indicate its recorded log10 of GI50 at 96 h. Item: O[C@@H]1[C@@H](O)[C@H](Oc2ccc3ccccc3c2)OC[C@H]1F
Outgoing: 1.51

Incoming: Annotate the compound O[C@H]1[C@H](Oc2ccc3ccccc3c2)OC[C@@H](O)[C@H]1O with its measured log10 of GI50 at 96 h.
Outgoing: 2.26

Incoming: Return value of log10 of GI50 at 96 h for input O[C@H]1[C@H](Oc2ccc3ccccc3c2)OCC[C@@H]1O , no commentary.
Outgoing: 2.45

Incoming: Note log10 of GI50 at 96 h for the compound shown: CO[C@@H]1[C@@H](O)[C@H](Oc2ccc3ccccc3c2)OC[C@H]1O
Outgoing: 1.23

###

# System: HCC70
# PROTOCOL_SUMMARY: Antiproliferative activity against human HCC70 cells after 96 hrs by crystal violet staining method
# Format: functional
# ASSAY_CONTEXT: Homo sapiens, HCC70, 96 h; read-out: ED50 (the source's name)
In this section we review reported pEC50 values for a set of compounds.
Keep it numeric: pEC50 is minus log10 of the concentration in mol/L.

Consider the reported pEC50 for these compounds:
O[C@@H]1[C@@H](O)[C@H](Oc2ccc3ccccc3c2)OC[C@H]1F | 4.43
O[C@@H]1CO[C@@H](Oc2ccc3ccccc3c2)[C@H](O)C1 | 3.75
CO[C@H]1[C@H](Oc2ccc3ccccc3c2)OC[C@@H](O)[C@@H]1O | 3.90
CO[C@@H]1CO[C@@H](Oc2ccc3ccccc3c2)[C@H](O)[C@H]1O | 3.87

Incoming: Specify measured pEC50 for CO[C@@H]1[C@@H](O)[C@H](Oc2ccc3ccccc3c2)OC[C@H]1O .
Outgoing: 3.84

Incoming: Please look at this compound and report its pEC50: O[C@@H]1[C@@H](F)[C@H](Oc2ccc3ccccc3c2)OC[C@H]1O
Outgoing: 4.66
